target: T1, recombinant human HER2 extracellular domain protein (human, UniProt P04626 23-652); assay: BLI, Protein A capture
T1 construct: range 23-652; Range is printed for the immunogen/panning protein; also called ErbB2; recombinant HER2 protein
endpoint_label: Kd (nM)

2126-Hu-L01 (antibody, IgG1, V domains shown, IgG1/Cκ) VH: QVQLVQSGSELKKPGASVKVSCKASGYTFTDYSMHWVRQAPGQGLEWMGWINTETGEPTYADDFKGRFVFSLDTSVSTAYLQISSLKAEDTAVYFCVRVGRYDYAMDYWGQGTTVTVSS VL: DIQMTQSPSSLSASVGDRVTITCKASQSVYTAVAWYQQKPGKAPKLLINSASYRYTGVPSRFSGSGSGTDFTLTISSLQPEDFATYYCQQHYSTPPTFGGGTKVEIK ... 17.5
2126-Hu-H37 (antibody, IgG1, V domains shown, IgG1/Cκ) VH: QVQLVQSGSELKKPGASVKVSCKASGYTFTDYSMHWVRQAPGQGLEWMGWINTETGEPTYADDFKGRFSFSLDTSVSTAYLQISSLKAEDTAVYFCVRVGRYDYAMDYWGQGTTVTVSS VL: DIQMTQSPSSLSASVGDRVTITCKASQDVYTAVAWYQQKPGKAPKLLINSASYRYTGVPSRFSGSGSGTDFTLTISSLQPEDFATYYCQQHYSTPPTFGGGTKVEIK ... 5.31
2126-Hu-L06 (antibody, IgG1, V domains shown, IgG1/Cκ) VH: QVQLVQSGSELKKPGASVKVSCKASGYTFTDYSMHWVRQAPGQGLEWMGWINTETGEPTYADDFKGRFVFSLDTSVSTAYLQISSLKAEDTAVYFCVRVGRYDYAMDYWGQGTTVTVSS VL: DIQMTQSPSSLSASVGDRVTITCKASQDVYTAVAWYQQKPGKAPKLLINAASYRYTGVPSRFSGSGSGTDFTLTISSLQPEDFATYYCQQHYSTPPTFGGGTKVEIK ... 6.63
2126-Hu-H34 (antibody, IgG1, V domains shown, IgG1/Cκ) VH: QVQLVQSGSELKKPGASVKVSCKASGYTFTDYSMHWVRQAPGQGLEWMGWINTETGEPTYADNFKGRFVFSLDTSVSTAYLQISSLKAEDTAVYFCVRVGRYDYAMDYWGQGTTVTVSS VL: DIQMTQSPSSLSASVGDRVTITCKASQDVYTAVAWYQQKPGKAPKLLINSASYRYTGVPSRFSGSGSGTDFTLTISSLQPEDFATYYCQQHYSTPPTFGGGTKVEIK ... 4.31
2126-Hu-H47 (antibody, IgG1, name in Kabat numbering, V domains shown, IgG1/Cκ) VH: QVQLVQSGSELKKPGASVKVSCKASGYTFTDYSMHWVRQAPGQGLEWMGWINTETGEPTYADDFKGRFVFSLDTSVSTAYLQISSLKAEDTAVYFCVRVGFYDYAMDYWGQGTTVTVSS VL: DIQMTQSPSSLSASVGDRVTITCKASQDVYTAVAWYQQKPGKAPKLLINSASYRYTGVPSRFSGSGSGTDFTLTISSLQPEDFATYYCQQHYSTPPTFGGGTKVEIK ... 17.8
2126-Hu-H22 (antibody, IgG1, V domains shown, IgG1/Cκ) VH: QVQLVQSGGELKKPGASVKVSCKASGYTFTDYSMHWVRQAPGQGLEWMGWINTETGEPTYADDFKGRFVFSLDTSVSTAYLQISSLKAEDTAVYFCVRVGRYDYAMDYWGQGTTVTVSS VL: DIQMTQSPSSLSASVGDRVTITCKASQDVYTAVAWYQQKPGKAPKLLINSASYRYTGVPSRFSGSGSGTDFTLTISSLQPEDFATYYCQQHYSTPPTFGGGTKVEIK ... 5.38
2126-Hu-H23 (antibody, IgG1, V domains shown, IgG1/Cκ) VH: QVQLVQSGSELKKPGASLKVSCKASGYTFTDYSMHWVRQAPGQGLEWMGWINTETGEPTYADDFKGRFVFSLDTSVSTAYLQISSLKAEDTAVYFCVRVGRYDYAMDYWGQGTTVTVSS VL: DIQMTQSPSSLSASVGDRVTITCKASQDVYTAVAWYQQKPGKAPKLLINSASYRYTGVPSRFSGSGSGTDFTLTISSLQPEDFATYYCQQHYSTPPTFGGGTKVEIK ... 5.9
2126-Hu-H39 (antibody, IgG1, V domains shown, IgG1/Cκ) VH: QVQLVQSGSELKKPGASVKVSCKASGYTFTDYSMHWVRQAPGQGLEWMGWINTETGEPTYADDFKGRFVFSVDTSVSTAYLQISSLKAEDTAVYFCVRVGRYDYAMDYWGQGTTVTVSS VL: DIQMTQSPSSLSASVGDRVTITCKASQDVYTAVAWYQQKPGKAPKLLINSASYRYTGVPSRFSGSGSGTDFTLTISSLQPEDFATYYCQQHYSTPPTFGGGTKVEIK ... 4.87
2126-Hu-H29 (antibody, IgG1, V domains shown, IgG1/Cκ) VH: QVQLVQSGSELKKPGASVKVSCKASGYTFTDYSMHWVRQAPGQGLEWMGWINTITGEPTYADDFKGRFVFSLDTSVSTAYLQISSLKAEDTAVYFCVRVGRYDYAMDYWGQGTTVTVSS VL: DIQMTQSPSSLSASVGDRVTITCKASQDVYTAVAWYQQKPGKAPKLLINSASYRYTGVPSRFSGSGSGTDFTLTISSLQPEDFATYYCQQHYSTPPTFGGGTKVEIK ... 2.61
2126-Hu-L13 (antibody, IgG1, V domains shown, IgG1/Cκ) VH: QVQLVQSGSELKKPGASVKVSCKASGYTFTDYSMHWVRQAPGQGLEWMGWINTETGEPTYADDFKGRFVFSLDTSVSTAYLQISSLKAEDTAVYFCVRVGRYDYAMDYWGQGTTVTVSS VL: DIQMTQSPSSLSASVGDRVTITCKASQDVYTAVAWYQQKPGKAPKLLINSASTRYTGVPSRFSGSGSGTDFTLTISSLQPEDFATYYCQQHYSTPPTFGGGTKVEIK ... 5.34
